Source listed as paper PMC10053807.

Record form. Attribute: Mean logPe. Fill in for each entry.
Test Name: PAMPA permeability, brain polar lipid extract (BPLE) membrane
Setup Conditions: Brain Polar lipid extract membrane, n=3

Look at each molecule and report its Mean logPe.
1. NC(N)=Nc1nc(CSCCC(N)=NS(N)(=O)=O)cs1
2. N=C(N)c1ccc(OCCCOc2ccc(C(=N)N)cc2)cc1
3. CCn1cc(C(=O)O)c(=O)c2cc(F)c(N3CCNCC3)cc21
4. CC(C)c1nc(N(C)S(C)(=O)=O)nc(-c2ccc(F)cc2)c1/C=C/[C@@H](O)C[C@@H](O)CC(=O)O

["< -6.48", "< -6.12", "< -6.30", "< -6.32"]

----------
Test Name: PAMPA permeability, heart polar lipid extract (HPLE) membrane
Setup Conditions: bovine, PAMPA, pH 7.4
Binary label based on Papp at 4 h, 100 μM with cut-off 5 ×10⁻⁶ cm/s: below gives yes (1), not below gives no (0).

In the record for CC1=NNS(=O)(=O)c2c1ccc(Cl)c2Cl , is Papp at 4 h, 100 μM less than 5 ×10⁻⁶ cm/s?
yes (1)

In the record for CC(=O)CC(c1ccccc1)c1c(O)c2ccccc2oc1=O (stereo not drawn) , is Papp at 4 h, 100 μM less than 5 ×10⁻⁶ cm/s?
yes (1)

----------
Record form. Attribute: Papp at 4 h, 100 μM. Fill in for each entry.
Test Name: PAMPA permeability, heart polar lipid extract (HPLE) membrane
Setup Conditions: bovine, PAMPA, pH 7.4
One number for each entry, in ×10⁻⁶ cm/s.

Consider the worked cases shown below.
CC(CCc1ccccc1)NCC(O)c1ccc(O)c(C(N)=O)c1 (stereo not shown) [labetalol]
8.38
COc1ccc2c(c1)N(C[C@H](C)CN(C)C)c1ccccc1S2 [levomepromazine]
6.57
CC(C)C(=O)Nc1ccc([N+](=O)[O-])c(C(F)(F)F)c1 [flutamide]
50.3
Nc1c(Br)cc(Br)cc1CN[C@H]1CC[C@H](O)CC1 [ambroxol]
61.8
Cc1c(OCC(F)(F)F)ccnc1C[S+]([O-])c1nc2ccccc2[nH]1 (stereo not shown) [lansoprazole]
18
CCn1cc(C(=O)O)c(=O)c2cc(F)c(N3CCNCC3)cc21 [norfloxacin]
1.59

Now look at this entry.
Record request: Papp at 4 h, 100 μM value, item CC1Cc2ccccc2N1NC(=O)c1ccc(Cl)c(S(N)(=O)=O)c1 (stereo not shown) [indapamide]
5.37

----------
Test Name: PAMPA permeability, heart polar lipid extract (HPLE) membrane
Setup Conditions: bovine, PAMPA, pH 7.4
Measured Attribute: Papp at 4 h, 100 μM

N=C(N)c1ccc(OCCCOc2ccc(C(=N)N)cc2)cc1 [propamidine]
< 0.741 ×10⁻⁶ cm/s
CC(C)c1nc(N(C)S(C)(=O)=O)nc(-c2ccc(F)cc2)c1/C=C/[C@@H](O)C[C@@H](O)CC(=O)O [rosuvastatin]
< 0.468 ×10⁻⁶ cm/s

Now look at this entry.
Record request: Papp at 4 h, 100 μM value, item NC(N)=Nc1nc(CSCCC(N)=NS(N)(=O)=O)cs1 [famotidine]
< 0.339 ×10⁻⁶ cm/s
